tested on: HCV RNA replication of genotype 2a (Huh7.5-FGR-JC1-Rluc2A); assay: HCV 2a replicon luciferase reporter assay; assay type: cell-based, Hepatitis C virus genotype 2a; conditions: Huh7.5-FGR-JC1-Rluc2A cells, 100 μM, 42 h
test readout: 2a Replicon reporter Inhibition (%)

Consider the worked cases shown below.
# compound, 2a Replicon reporter Inhibition (%)
rows = [
    ("COc1cccc(OC)c1/C=C1\\S/C(=N/c2nnc(-c3ccc(Cl)cc3)s2)NC1=O [Compound 25]", "near complete inhibition"),
    ("O=C1N/C(=N\\c2nnc(-c3ccc(F)cc3)s2)S/C1=C\\c1c(Cl)cccc1Cl [Compound 15]", "near complete inhibition"),
    ("O=C1N/C(=N\\c2nnc(-c3ccc(Cl)cc3)s2)S/C1=C\\c1ccccc1Cl [Compound 22]", "n.i."),
    ("O=C1N/C(=N\\c2nnc(-c3ccc(F)cc3)s2)S/C1=C\\c1c(F)cccc1Cl [Compound 12]", "near complete inhibition"),
    ("O=C1N/C(=N\\c2nnc(-c3ccc(Cl)cc3)s2)S/C1=C\\c1ccc(Cl)cc1Cl [Compound 23]", "n.i."),
]

Record summary for O=C1N/C(=N\c2nnc(-c3ccc(Cl)cc3)s2)S/C1=C\c1c(Cl)cccc1Cl [Compound 24] : reported 2a Replicon reporter Inhibition (%) = near complete inhibition

What the record says about O=C(CCl)Nc1nnc(-c2ccc(F)cc2)s1 [Compound 5] : 2a Replicon reporter Inhibition (%) is near complete inhibition

The compound listed as O=C1N/C(=N\c2nnc(-c3ccc(Cl)cc3)s2)S/C1=C\c1c(F)cccc1Cl [Compound 21] has a reported 2a Replicon reporter Inhibition (%) of n.i.

Value of 2a Replicon reporter Inhibition (%) reported for the compound O=C(CCl)Nc1nnc(-c2ccc(Cl)cc2)s1 [Compound 6] is near complete inhibition
